tested on: MDA-MB-231; assay: NCI tumour cell line growth inhibition, 48 h
Active and inactive are the calls of the source. Rule as the data show it: active = GI50 up to about 1.1 µM and inactive = higher.
Possible outcomes: TRUE for active, FALSE for inactive

{"MOLECULE": "Nc1ncnn2c(C3OC(CO)C(O)C3O)ccc12 (stereo unspecified)", "SYSTEM_UNDER_TEST": "MDA-MB-231", "CLASSIFICATION": "TRUE"}
{"MOLECULE": "O=c1oc2c(Cl)cc(Cl)cc2cc1C1=CSC2=NCCN12", "SYSTEM_UNDER_TEST": "MDA-MB-231", "CLASSIFICATION": "FALSE"}
{"MOLECULE": "COc1ccccc1-c1cc(O)c2ccc(C)nc2n1", "SYSTEM_UNDER_TEST": "MDA-MB-231", "CLASSIFICATION": "FALSE"}
{"MOLECULE": "CN(C)c1ccc(-c2nc(-c3cc4c(ccc5ccccc54)oc3=O)cs2)cc1", "SYSTEM_UNDER_TEST": "MDA-MB-231", "CLASSIFICATION": "FALSE"}
{"MOLECULE": "N#CC(c1ccccc1)N(CCc1ccccc1)C(=O)c1ccccc1 (stereo unspecified)", "SYSTEM_UNDER_TEST": "MDA-MB-231", "CLASSIFICATION": "FALSE"}
{"MOLECULE": "Oc1cccc(/C=N/N=c2/[nH][nH]/c(=N/N=C/c3cccc(O)c3)c3ccccc23)c1", "SYSTEM_UNDER_TEST": "MDA-MB-231", "CLASSIFICATION": "FALSE"}
{"MOLECULE": "CCC(C=O)P1(=O)OC(C)(C)CN1C(C)(C)C (stereo unspecified)", "SYSTEM_UNDER_TEST": "MDA-MB-231", "CLASSIFICATION": "FALSE"}
{"MOLECULE": "COc1cc(/C=C2/C(=O)N(C(=O)c3ccccc3O)N=C2C)ccc1O", "SYSTEM_UNDER_TEST": "MDA-MB-231", "CLASSIFICATION": "FALSE"}
{"MOLECULE": "C(CCCCc1nnc(N2CCOCC2)o1)CCCc1nnc(N2CCOCC2)o1", "SYSTEM_UNDER_TEST": "MDA-MB-231", "CLASSIFICATION": "FALSE"}
{"MOLECULE": "Cc1csc2nc3c(cnn3C)c(=S)n12", "SYSTEM_UNDER_TEST": "MDA-MB-231", "CLASSIFICATION": "FALSE"}
{"MOLECULE": "COc1c2cc(C(C)(C)C)cc1Cc1cccc(c1OCc1cccc([N+](=O)[O-])c1)Cc1cc(C(C)(C)C)cc(c1OC)Cc1cccc(c1OCc1cccc([N+](=O)[O-])c1)Cc1cc(C(C)(C)C)cc(c1OC)Cc1cccc(c1OCc1cccc([N+](=O)[O-])c1)C2", "SYSTEM_UNDER_TEST": "MDA-MB-231", "CLASSIFICATION": "FALSE"}
{"MOLECULE": "O=C1/C(=C/c2ccc([N+](=O)[O-])cc2)CNC/C1=C\\c1ccc([N+](=O)[O-])cc1", "SYSTEM_UNDER_TEST": "MDA-MB-231", "CLASSIFICATION": "FALSE"}
{"MOLECULE": "COc1ccc(CNc2nc(NCc3ccc(OC)cc3)nc(Nc3ccccc3)n2)cc1", "SYSTEM_UNDER_TEST": "MDA-MB-231", "CLASSIFICATION": "FALSE"}
{"MOLECULE": "CC(C)(C)O/N=C/c1cc(NC(=S)c2ccccc2)ccc1Cl", "SYSTEM_UNDER_TEST": "MDA-MB-231", "CLASSIFICATION": "FALSE"}
{"MOLECULE": "CC(C(=O)O)/C(=C\\c1ccc2c(c1)OCO2)C(=O)O (stereo unspecified)", "SYSTEM_UNDER_TEST": "MDA-MB-231", "CLASSIFICATION": "FALSE"}
{"MOLECULE": "COc1ccc(CC2NC(=O)/C=C/CC(C(C)C3OC3c3ccccc3)OC(=O)C(CC(C)C)OC(=O)C(C)CNC2=O)cc1Cl (stereo unspecified)", "SYSTEM_UNDER_TEST": "MDA-MB-231", "CLASSIFICATION": "TRUE"}
{"MOLECULE": "COC(=O)Cc1ccc2c(c1)Sc1ccc(CC(=O)OC)cc1N2C", "SYSTEM_UNDER_TEST": "MDA-MB-231", "CLASSIFICATION": "FALSE"}
{"MOLECULE": "CC(=O)Nc1ccc2c3c(cc(O)c2c1)N(C(=O)CCCCCC(=O)Nc1ccc2c4c(cc(O)c2c1)N(C(=O)OC(C)(C)C)CC4CCl)CC3CCl (stereo unspecified)", "SYSTEM_UNDER_TEST": "MDA-MB-231", "CLASSIFICATION": "FALSE"}
{"MOLECULE": "O=C(CCc1cc(O)cc(O)c1)NCCc1cc(OCc2ccccc2)cc(OCc2ccccc2)c1", "SYSTEM_UNDER_TEST": "MDA-MB-231", "CLASSIFICATION": "FALSE"}
{"MOLECULE": "CCC/C=C/C=C/C(=O)OC1C(C)C2(O)C3C=C(C)C(=O)C3CC(COC(C)=O)=CC2C2C(C)(C)C12OC(=O)C(C)C (stereo unspecified)", "SYSTEM_UNDER_TEST": "MDA-MB-231", "CLASSIFICATION": "FALSE"}
{"MOLECULE": "Cc1ncc(CSc2ccccc2N)c(CO)c1O", "SYSTEM_UNDER_TEST": "MDA-MB-231", "CLASSIFICATION": "FALSE"}
{"MOLECULE": "CCCc1cc(COC)c(C#N)c(O)n1", "SYSTEM_UNDER_TEST": "MDA-MB-231", "CLASSIFICATION": "FALSE"}
{"MOLECULE": "C=C1CC/C=C(\\C)CCC[C@H](C)[C@@H](O)[C@@H]2OC(=O)C(=C)[C@@H]2C[C@H]1O", "SYSTEM_UNDER_TEST": "MDA-MB-231", "CLASSIFICATION": "FALSE"}
{"MOLECULE": "COc1cc2oc(-c3ccc(O)cc3O)c(CC=C(C)C)c(=O)c2c(O)c1/C=C/C(C)C", "SYSTEM_UNDER_TEST": "MDA-MB-231", "CLASSIFICATION": "FALSE"}
{"MOLECULE": "COC(=O)C(CCSC)NC(=O)CSc1nnc(COc2ccc(Cl)cc2)n1-c1ccccc1 (stereo unspecified)", "SYSTEM_UNDER_TEST": "MDA-MB-231", "CLASSIFICATION": "FALSE"}
{"MOLECULE": "CC/C(N)=N\\NC(=O)OC(C)(C)C", "SYSTEM_UNDER_TEST": "MDA-MB-231", "CLASSIFICATION": "FALSE"}
{"MOLECULE": "COc1cc(/C=C2\\N=C(C)N(n3c(-c4ccccc4)nc4ccccc4c3=O)C2=O)cc(OC)c1OC", "SYSTEM_UNDER_TEST": "MDA-MB-231", "CLASSIFICATION": "FALSE"}
{"MOLECULE": "Cc1ccc(S(=O)(=O)NCCCSCCO)cc1", "SYSTEM_UNDER_TEST": "MDA-MB-231", "CLASSIFICATION": "FALSE"}
{"MOLECULE": "O=C(NCc1ccccc1)c1cc2ccccc2o/c1=N\\c1ccccc1F", "SYSTEM_UNDER_TEST": "MDA-MB-231", "CLASSIFICATION": "FALSE"}
{"MOLECULE": "COc1cc(C2c3cc4c(cc3[C@@H](Nc3ccc5c(c3)OCCO5)C3COC(=O)[C@H]23)OCO4)cc(OC)c1O (stereo partly specified)", "SYSTEM_UNDER_TEST": "MDA-MB-231", "CLASSIFICATION": "FALSE"}
{"MOLECULE": "FC(F)(F)c1ccccc1N1CCN(c2nc(-c3cccs3)nc3ccc(Br)cc23)CC1", "SYSTEM_UNDER_TEST": "MDA-MB-231", "CLASSIFICATION": "FALSE"}
{"MOLECULE": "CCC1([N+](=O)[O-])CC2C=CC1C2 (stereo unspecified)", "SYSTEM_UNDER_TEST": "MDA-MB-231", "CLASSIFICATION": "FALSE"}
{"MOLECULE": "Cc1csc2n(C)c(=O)c3ccccc3[n+]12", "SYSTEM_UNDER_TEST": "MDA-MB-231", "CLASSIFICATION": "FALSE"}
{"MOLECULE": "O=C(/C(=C(/Br)I)c1ccccc1)c1ccccc1", "SYSTEM_UNDER_TEST": "MDA-MB-231", "CLASSIFICATION": "FALSE"}
{"MOLECULE": "COc1ccc(/C=C2\\N=C(c3ccccc3)OC2=O)cc1OC(C)=O", "SYSTEM_UNDER_TEST": "MDA-MB-231", "CLASSIFICATION": "FALSE"}
{"MOLECULE": "O=C(O)Cc1nc[nH]c1C(=O)O", "SYSTEM_UNDER_TEST": "MDA-MB-231", "CLASSIFICATION": "FALSE"}
{"MOLECULE": "C=CCc1cccc2cc(C(=O)NCc3ccccc3)c(=N)oc12", "SYSTEM_UNDER_TEST": "MDA-MB-231", "CLASSIFICATION": "FALSE"}
{"MOLECULE": "CN(C)c1c(Cl)c(=O)oc2c1ccc1nc(-c3ccccc3)sc12", "SYSTEM_UNDER_TEST": "MDA-MB-231", "CLASSIFICATION": "FALSE"}
{"MOLECULE": "C/C(=N/c1[nH]c(=O)cc2c1C(=O)CC2)N(C)C", "SYSTEM_UNDER_TEST": "MDA-MB-231", "CLASSIFICATION": "FALSE"}
{"MOLECULE": "Oc1ccc(-c2ccccc2)nn1", "SYSTEM_UNDER_TEST": "MDA-MB-231", "CLASSIFICATION": "FALSE"}
{"MOLECULE": "Cc1cccc(NC(=S)Nc2ccc(Cl)cc2)n1", "SYSTEM_UNDER_TEST": "MDA-MB-231", "CLASSIFICATION": "FALSE"}
